- assay method text: Cytotoxicity against rat L6 cells after 72 hrs by alamar blue staining based fluorescence assay
- Assay type: cell-based
The entries below are paired with their reported CC50 at 72 h.
Expressed in µM, but write only the number.

Answered examples (6):
Fc1ccc(-n2ccc(C(c3ccccc3)n3ccnc3)c2)cc1 (stereo not given) = 104
CSc1ccc(-c2c[nH]cc2C(c2ccc(Cl)cc2Cl)n2ccnc2)cc1 (stereo not given) = 7.22
Clc1ccc(C(c2c[nH]cc2-c2cccc3ccccc23)n2ccnc2)c(Cl)c1 (stereo not given) = 12.3
COc1cc([C@@H]2c3cc4c(cc3[C@H](O)[C@H]3COC(=O)[C@H]23)OCO4)cc(OC)c1OC = 0.007
Fc1ccc(-n2ccc(C(c3ccc(Cl)cc3)n3ccnc3)c2)cc1 (stereo not given) = 47.5
N#Cc1ccc(-c2c[nH]cc2C(c2ccc(Cl)cc2Cl)n2ccnc2)cc1 (stereo not given) = 15

Which CC50 at 72 h is reported for this molecule? Clc1ccc(-c2c[nH]cc2C(c2ccc(Cl)cc2Cl)n2ccnc2)cc1 (stereo not given)
9.61

And CC(C)(C)c1ccc(-c2c[nH]cc2C(c2ccc(Cl)cc2Cl)n2ccnc2)cc1 (stereo not given) ?
22.9

And Cn1cc(-c2ccc(Cl)cc2)c(C(c2ccc(Cl)cc2Cl)n2ccnc2)c1 (stereo not given) ?
5.23

---

- assay system: Sterol 14-alpha demethylase (Trypanosoma cruzi (strain CL Brener)) (UniProt Q7Z1V1)
- Sequence (Q7Z1V1 whole entry, looked up): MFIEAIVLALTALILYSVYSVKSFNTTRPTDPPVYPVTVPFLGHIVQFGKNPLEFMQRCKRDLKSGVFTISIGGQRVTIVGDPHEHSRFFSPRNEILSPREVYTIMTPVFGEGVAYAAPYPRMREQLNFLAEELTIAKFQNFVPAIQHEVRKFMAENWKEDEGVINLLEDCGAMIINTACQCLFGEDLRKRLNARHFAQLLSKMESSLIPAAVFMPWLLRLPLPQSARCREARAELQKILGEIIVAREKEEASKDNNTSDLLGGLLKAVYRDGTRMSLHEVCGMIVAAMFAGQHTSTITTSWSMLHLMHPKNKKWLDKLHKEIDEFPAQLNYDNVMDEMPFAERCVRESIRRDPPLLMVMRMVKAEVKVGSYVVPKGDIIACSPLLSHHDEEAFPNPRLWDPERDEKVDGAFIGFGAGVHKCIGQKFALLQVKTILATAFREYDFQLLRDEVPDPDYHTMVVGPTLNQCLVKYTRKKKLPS
- assay method text: Binding affinity to Trypanosoma cruzi CYP51 at 5 to 10 uM by 96-well based UV-vis spectroscopic method
The source made the active and inactive calls. No cut-off for these calls is given here.
readout kind: Activity

Clc1ccc(-c2c[nH]cc2C(c2ccc(Cl)cc2Cl)n2ccnc2)cc1 (centres undefined) = Active
Clc1ccc(-c2c[nH]cc2C(c2ccc(Cl)cc2Cl)n2ccnc2)c(Cl)c1 (centres undefined) = Active
Clc1ccc(C(c2c[nH]cc2-c2ccc(Cl)c(Cl)c2)n2ccnc2)c(Cl)c1 (centres undefined) = Active
Cn1cc(-c2ccc(Cl)cc2)c(C(c2ccc(Cl)cc2Cl)n2ccnc2)c1 (centres undefined) = Active

---

The entries below are paired with their reported pIC50.
- Tested on: Trypanosoma cruzi
- assay method text: Antitrypanosomal activity against Trypanosoma cruzi Tulahuen strain C2C4 amastigote forms infected in rat L6 cells after 96 hrs by CPRG/Nonidet reagent based photometric method
- Assay type: functional, organism-based
- conditions used: Tulahuen strain C2C4, L6, 96 h
pIC50 here: minus log base 10 of the concentration, concentration in moles per litre.

Answered examples (2):
Fc1ccc(C(c2ccn(-c3ccc(Cl)cc3)c2)n2ccnc2)cc1 (stereo not drawn) = 5.43
O=C(Cn1ccnc1[N+](=O)[O-])NCc1ccccc1 [BENZNIDAZOLE] = 5.78

Which pIC50 is reported for this compound? c1ccc(C(c2ccn(-c3ccccc3)c2)n2ccnc2)cc1 (stereo not drawn)
5.41

---

- assay method text: Selectivity index, ratio of CC50 for rat L6 cells to IC50 for Leishmania donovani MHOM/ET/67/L82 axenic amastigotes
- Assay type: toxicity
- conditions used: read-out: Ratio CC50/IC50
Checkbox rule: selectivity ratio lower than 2 = YES; selectivity ratio not lower than 2 = NO.

Clc1ccc(C(c2c[nH]cc2-c2ccc(Cl)c(Cl)c2)n2ccnc2)c(Cl)c1 (stereo not drawn) = YES
Fc1ccc(-n2ccc(C(c3ccc(Cl)cc3)n3ccnc3)c2)cc1 (stereo not drawn) = NO
CSc1ccc(-c2c[nH]cc2C(c2ccc(Cl)cc2Cl)n2ccnc2)cc1 (stereo not drawn) = YES
Clc1ccc(C(c2c[nH]cc2-c2cccc3ccccc23)n2ccnc2)c(Cl)c1 (stereo not drawn) = NO
Fc1ccc(-n2ccc(C(c3ccccc3)n3ccnc3)c2)cc1 (stereo not drawn) = NO
Clc1ccc(-c2c[nH]cc2C(c2ccc(Cl)cc2Cl)n2ccnc2)c(Cl)c1 (stereo not drawn) = NO
CC(C)(C)c1ccc(-c2c[nH]cc2C(c2ccc(Cl)cc2Cl)n2ccnc2)cc1 (stereo not drawn) = NO

Please find the next molecule below.
Consider the molecule Cn1cc(-c2ccc(Cl)cc2)c(C(c2ccc(Cl)cc2Cl)n2ccnc2)c1 (stereo not drawn) . Is its selectivity ratio strictly less than 2?
YES
